biological target: βTrCP (Homo sapiens, UniProt Q9Y297); assay: Biotin pull down assay with biotinylated IκB peptide; type: binding; settings: 100 μM compound
Sequence (Q9Y297 whole entry): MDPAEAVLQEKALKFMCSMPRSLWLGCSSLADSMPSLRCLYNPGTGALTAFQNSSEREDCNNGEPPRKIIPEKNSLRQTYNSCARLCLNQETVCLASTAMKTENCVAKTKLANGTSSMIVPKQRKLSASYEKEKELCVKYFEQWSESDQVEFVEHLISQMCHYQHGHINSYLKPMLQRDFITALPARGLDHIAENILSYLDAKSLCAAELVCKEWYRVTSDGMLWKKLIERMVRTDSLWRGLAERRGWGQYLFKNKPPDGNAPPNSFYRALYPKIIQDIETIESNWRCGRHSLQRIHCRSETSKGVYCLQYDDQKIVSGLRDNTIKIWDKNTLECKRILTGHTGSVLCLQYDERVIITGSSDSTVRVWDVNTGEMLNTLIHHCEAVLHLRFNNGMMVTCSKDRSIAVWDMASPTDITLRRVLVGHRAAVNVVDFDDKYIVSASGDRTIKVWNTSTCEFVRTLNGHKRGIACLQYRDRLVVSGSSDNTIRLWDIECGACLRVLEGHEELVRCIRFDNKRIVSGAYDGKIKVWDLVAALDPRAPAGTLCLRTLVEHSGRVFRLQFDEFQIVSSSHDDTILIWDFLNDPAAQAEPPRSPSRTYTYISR
Starred links: 1 amine or outer side, 2 acyl side, 3 side chain; linkers in the order of their positions; H or OH if unused. Non-standard residues stand in square brackets, D forms with d. Residues, ends and D or L forms follow the SMILES beside them. *: point of attachment. Phe(4-NO2) = N[C@@H](Cc1ccc([N+](=O)[O-])cc1)C(=O)O; Phe(3-Cl) = N[C@@H](Cc1cccc(Cl)c1)C(=O)O; Phe(3-F) = N[C@@H](Cc1cccc(F)c1)C(=O)O; 1Nal = N[C@@H](Cc1cccc2ccccc12)C(=O)O; Phe(2-F) = N[C@@H](Cc1ccccc1F)C(=O)O; Maleoyl = O=C(/C=C\C(=O)[*:2])[*:1]; pS = N[C@@H](COP(=O)(O)O)C(=O)O; Suc = O=C(CCC(=O)[*:2])[*:1]; Tos = Cc1ccc(S(=O)(=O)*)cc1; Ethoxycarbonyl = CCOC(=O)*
EXPERIMENTAL ENDPOINT: Biotin Pulldown Assay 100 μM

Please review the entries below; each comes with its answer.
>>> result_value("NC(=O)CC[C@H](NC(=O)CCC(=O)O)C(=O)NCC(=O)N[C@@H](Cc1cccc(F)c1)C(=O)N[C@@H](Cc1ccc([N+](=O)[O-])cc1)C(=O)N[C@@H](CCC(=O)O)C(N)=O [UBP012, Suc-QGF(3F)F(4NO2)E-NH2]")
"reduces"
>>> result_value("CCOC(=O)N[C@H](CC(=O)O)C(=O)N[C@@H](CCC(=O)O)C(=O)NCC(=O)N[C@@H](Cc1cccc(F)c1)C(=O)N[C@@H](Cc1c[nH]c2ccccc12)C(=O)N[C@@H](CCC(=O)O)C(N)=O [UBP023, EtO(CO)-dEGF(3F)WE-NH2] (Ethoxycarbonyl-[dD]EG[Phe(3-F)]WE-NH2)")
"inhibits"
>>> result_value("Cc1ccc(S(=O)(=O)N[C@H](CC(=O)O)C(=O)N[C@@H](CCC(=O)O)C(=O)NCC(=O)N[C@@H](Cc2cccc(Cl)c2)C(=O)N[C@@H](Cc2c[nH]c3ccccc23)C(=O)N[C@@H](CCC(=O)O)C(N)=O)cc1 [UBP034, Ts-dEGF(3Cl)WE-NH2] (Tos-[dD]EG[Phe(3-Cl)]WE-NH2)")
"inhibits"
>>> result_value("NC(=O)[C@H](CCC(=O)O)NC(=O)[C@H](Cc1c[nH]cn1)NC(=O)[C@H](Cc1cccc(F)c1)NC(=O)CNC(=O)[C@H](CCC(=O)O)NC(=O)CCC(=O)O [UBP015, Suc-EGF(3F)HE-NH2] (Suc-EG[Phe(3-F)]HE-NH2)")
"inhibits"
>>> result_value("NC(=O)[C@H](CCC(=O)O)NC(=O)[C@H](Cc1c[nH]c2ccccc12)NC(=O)[C@H](Cc1cccc(F)c1)NC(=O)CNC(=O)[C@H](CCC(=O)O)NC(=O)CCC(=O)O [UBP014, Suc-EGF(3F)WE-NH2] (Suc-EG[Phe(3-F)]WE-NH2)")
"inhibits"
>>> result_value("Cc1ccc(S(=O)(=O)N[C@H](CC(=O)O)C(=O)N[C@@H](CC(=O)O)C(=O)NCC(=O)N[C@@H](Cc2cccc(F)c2)C(=O)N[C@@H](Cc2c[nH]c3ccccc23)C(=O)N[C@@H](CC(=O)O)C(N)=O)cc1 [UBP028, Ts-dDGF(3F)WD-NH2] (Tos-[dD]DG[Phe(3-F)]WD-NH2)")
"inhibits"

Can you look up the measured Biotin Pulldown Assay 100 μM of NC(=O)[C@H](CCC(=O)O)NC(=O)[C@H](Cc1ccc([N+](=O)[O-])cc1)NC(=O)[C@H](Cc1cccc(F)c1)NC(=O)CNC(=O)[C@H](CCC(=O)O)NC(=O)/C=C\C(=O)O [UBP008, Mal-EGF(3F)F(4NO2)E-NH2] (Maleoyl-EG[Phe(3-F)][Phe(4-NO2)]E-NH2) for me?
inhibits

Can you look up the measured Biotin Pulldown Assay 100 μM of NC(=O)[C@H](CCC(=O)O)NC(=O)[C@H](Cc1ccc([N+](=O)[O-])cc1)NC(=O)[C@H](Cc1ccccc1F)NC(=O)CNC(=O)[C@H](CCC(=O)O)NC(=O)CCC(=O)O [UBP003, Suc-EGF(2F)F(4NO2)E-NH2] (Suc-EG[Phe(2-F)][Phe(4-NO2)]E-NH2) for me?
reduces

Can you look up the measured Biotin Pulldown Assay 100 μM of Cc1ccc(S(=O)(=O)N[C@H](CC(=O)O)C(=O)N[C@@H](CC(=O)O)C(=O)NCC(=O)N[C@@H](Cc2cccc(F)c2)C(=O)N[C@@H](Cc2c[nH]c3ccccc23)C(=O)N[C@@H](CCC(=O)O)C(N)=O)cc1 [UBP025, Ts-dDGF(3F)WE-NH2] (Tos-[dD]DG[Phe(3-F)]WE-NH2) for me?
inhibits

Can you look up the measured Biotin Pulldown Assay 100 μM of NC(=O)[C@H](CCC(=O)O)NC(=O)[C@H](Cc1ccccc1)NC(=O)[C@H](Cc1ccc(O)cc1)NC(=O)CNC(=O)[C@H](CCC(=O)O)NC(=O)CCC(=O)O [UBP007, Suc-EGYFE-NH2] (Suc-EGYFE-NH2) for me?
inhibits

Can you look up the measured Biotin Pulldown Assay 100 μM of CC(=O)N[C@H](CC(=O)O)C(=O)N[C@@H](CCC(=O)O)C(=O)NCC(=O)N[C@@H](Cc1cccc(F)c1)C(=O)N[C@@H](Cc1cccc2ccccc12)C(=O)N[C@@H](CCC(=O)O)C(N)=O [UBP016, Ac-dEGF(3F)1NalE-NH2] (Ac-[dD]EG[Phe(3-F)][1Nal]E-NH2) for me?
inhibits

Can you look up the measured Biotin Pulldown Assay 100 μM of NC(=O)[C@H](CCC(=O)O)NC(=O)[C@H](Cc1cccc2ccccc12)NC(=O)[C@H](Cc1cccc(F)c1)NC(=O)CNC(=O)[C@H](CCC(=O)O)NC(=O)CCC(=O)O [UBP010, Suc-EGF(3F)1NalE-NH2] (Suc-EG[Phe(3-F)][1Nal]E-NH2) for me?
inhibits

Can you look up the measured Biotin Pulldown Assay 100 μM of Cc1ccc(S(=O)(=O)N[C@H](CC(=O)O)C(=O)N[C@@H](CCC(=O)O)C(=O)NCC(=O)N[C@@H](Cc2cccc(F)c2)C(=O)N[C@@H](Cc2c[nH]c3ccccc23)C(=O)N[C@@H](CC(=O)O)C(N)=O)cc1 [UBP027, Ts-dEGF(3F)WD-NH2] (Tos-[dD]EG[Phe(3-F)]WD-NH2) for me?
inhibits

Can you look up the measured Biotin Pulldown Assay 100 μM of NC(=O)[C@H](CCC(=O)O)NC(=O)[C@H](Cc1ccc([N+](=O)[O-])cc1)NC(=O)[C@H](Cc1cccc(F)c1)NC(=O)CNC(=O)[C@H](CCC(=O)O)NC(=O)CCC(=O)O [UBP004, Suc-EGF(3F)F(4NO2)E-NH2] (Suc-EG[Phe(3-F)][Phe(4-NO2)]E-NH2) for me?
inhibits

Can you look up the measured Biotin Pulldown Assay 100 μM of CC[C@H](C)[C@H](NC(=O)CNC(=O)[C@H](COP(=O)(O)O)NC(=O)[C@@H](N)CC(=O)O)C(=O)N[C@@H](Cc1ccccc1)C(=O)N[C@@H](CCC(=O)O)C(N)=O [UBP001, DpSGIFE-NH2] (H-D[pS]GIFE-NH2) for me?
inhibits

Can you look up the measured Biotin Pulldown Assay 100 μM of NC(=O)[C@H](CCC(=O)O)NC(=O)[C@H](Cc1ccccc1)NC(=O)[C@H](Cc1ccccc1)NC(=O)CNC(=O)[C@H](CCC(=O)O)NC(=O)CCC(=O)O [UBP002, Suc-EGFFE-NH2] (Suc-EGFFE-NH2) for me?
reduces
